Attribution: patent US4788181A

experiment.notes: Cytotoxicity to ATH8 cells cultured with the nucleoside (trypan blue viable cell count)
Type: cell-based
measurement.context: human; 30 μM; ATH8 cells
measured.endpoint: cytotoxicity at 30 µM (%)
Answer with a number only, understood to be in %.

The compound identified as Nc1nc(=O)n([C@H]2CC[C@@H](CO)O2)cc1Br registered its cytotoxicity at 30 µM at 2

====

experiment.notes: Cytotoxicity to ATH8 cells cultured with the nucleoside (trypan blue viable cell count)
Assay type: cell-based
measurement.context: human; 0.5 μM; ATH8 cells; read-out: Cytotoxicity (%)
The reader will find reported cytotoxicity at 0.5 µM values listed item by item below.
Please state the figure in %; there is no need to write the unit.

1) Nc1nc(=O)n([C@H]2CC[C@@H](CO)O2)cc1F = 0

Turning to the following molecule.
Lookup result for Nc1ccn([C@H]2CC[C@@H](COP(=O)(O)O)O2)c(=O)n1 ; measured cytotoxicity at 0.5 µM: 0
